pIC50: −log10 of the molar value. Counter-ions that a name gives are not always drawn.
Notes on pIC50 obtained with JAK1 (Homo sapiens (Human), UniProt P23458).
Sequence (P23458 whole entry): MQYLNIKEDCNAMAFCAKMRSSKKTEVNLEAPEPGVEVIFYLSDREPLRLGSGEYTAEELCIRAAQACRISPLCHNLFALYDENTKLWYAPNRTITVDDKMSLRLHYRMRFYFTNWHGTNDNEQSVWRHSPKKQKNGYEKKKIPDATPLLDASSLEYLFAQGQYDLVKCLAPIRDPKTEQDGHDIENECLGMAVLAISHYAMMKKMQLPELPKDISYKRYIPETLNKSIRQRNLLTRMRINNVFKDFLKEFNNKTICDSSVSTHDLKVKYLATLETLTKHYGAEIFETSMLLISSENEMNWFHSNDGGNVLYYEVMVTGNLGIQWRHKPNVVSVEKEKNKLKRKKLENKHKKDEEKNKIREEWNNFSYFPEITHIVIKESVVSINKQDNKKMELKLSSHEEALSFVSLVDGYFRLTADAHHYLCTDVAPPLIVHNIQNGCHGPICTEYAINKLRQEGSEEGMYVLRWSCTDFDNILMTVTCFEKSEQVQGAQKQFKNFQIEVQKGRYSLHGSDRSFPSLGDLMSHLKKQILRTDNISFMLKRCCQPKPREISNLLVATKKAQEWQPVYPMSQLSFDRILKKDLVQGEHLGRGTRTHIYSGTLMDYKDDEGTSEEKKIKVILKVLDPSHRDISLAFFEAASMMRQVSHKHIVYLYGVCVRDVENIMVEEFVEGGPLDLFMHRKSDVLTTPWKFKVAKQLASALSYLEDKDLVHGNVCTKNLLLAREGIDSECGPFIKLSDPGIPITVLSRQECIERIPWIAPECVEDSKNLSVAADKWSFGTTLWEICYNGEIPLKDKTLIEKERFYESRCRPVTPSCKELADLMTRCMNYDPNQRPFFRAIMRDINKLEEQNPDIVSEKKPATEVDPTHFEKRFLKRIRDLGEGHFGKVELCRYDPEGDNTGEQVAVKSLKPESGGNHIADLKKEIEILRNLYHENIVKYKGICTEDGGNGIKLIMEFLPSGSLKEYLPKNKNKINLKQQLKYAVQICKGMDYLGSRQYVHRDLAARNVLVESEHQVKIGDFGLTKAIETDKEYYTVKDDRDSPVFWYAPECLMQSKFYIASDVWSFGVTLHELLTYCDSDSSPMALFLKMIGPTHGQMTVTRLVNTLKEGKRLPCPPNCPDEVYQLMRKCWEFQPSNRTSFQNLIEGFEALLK

MOLECULE: CN(c1ccccc1CNc1nc(-c2cc(F)c(O)cc2CC(F)(F)F)cc2[nH]nc(C(N)=O)c12)S(=O)(=O)c1ccccc1
pIC50: 7.70
--
MOLECULE: CCc1cc(O)c(F)cc1-c1cc2[nH]nc(C(=O)NC)c2c(NCC2CCCC2)n1
pIC50: 8.33
--
MOLECULE: CNC(=O)c1n[nH]c2cc(-c3cc(F)c(O)cc3CC(F)(F)F)nc(NCc3ccccc3N(C)S(C)(=O)=O)c12
pIC50: 8.44
--
MOLECULE: CCc1cc(O)ccc1-c1cc2[nH]ncc2c(N2CCC(S(=O)(=O)N(C)C)C2)n1 (racemic)
pIC50: 8.09
--
MOLECULE: CCc1cc(O)c(F)cc1-c1cc2[nH]nc(C(=O)NC)c2c(NCCc2ccc(NS(=O)(=O)c3ccccc3)cc2)n1
pIC50: 8.24
--
MOLECULE: CCc1cc(O)c(F)cc1-c1cc2[nH]ncc2c(N(CCc2ccc(NS(C)(=O)=O)cc2)Cc2ccccc2N(C)S(C)(=O)=O)n1 [Example 130, hydrochloride]
pIC50: 7.36
--
MOLECULE: CCc1cc(O)c(F)cc1-c1cc2[nH]nc(C(=O)NC)c2c(NCc2ccccc2N(CC)S(C)(=O)=O)n1
pIC50: 8.77

----------
Notes on IC50 obtained with JAK3 (Homo sapiens (Human), UniProt P52333).
Sequence (P52333 whole entry): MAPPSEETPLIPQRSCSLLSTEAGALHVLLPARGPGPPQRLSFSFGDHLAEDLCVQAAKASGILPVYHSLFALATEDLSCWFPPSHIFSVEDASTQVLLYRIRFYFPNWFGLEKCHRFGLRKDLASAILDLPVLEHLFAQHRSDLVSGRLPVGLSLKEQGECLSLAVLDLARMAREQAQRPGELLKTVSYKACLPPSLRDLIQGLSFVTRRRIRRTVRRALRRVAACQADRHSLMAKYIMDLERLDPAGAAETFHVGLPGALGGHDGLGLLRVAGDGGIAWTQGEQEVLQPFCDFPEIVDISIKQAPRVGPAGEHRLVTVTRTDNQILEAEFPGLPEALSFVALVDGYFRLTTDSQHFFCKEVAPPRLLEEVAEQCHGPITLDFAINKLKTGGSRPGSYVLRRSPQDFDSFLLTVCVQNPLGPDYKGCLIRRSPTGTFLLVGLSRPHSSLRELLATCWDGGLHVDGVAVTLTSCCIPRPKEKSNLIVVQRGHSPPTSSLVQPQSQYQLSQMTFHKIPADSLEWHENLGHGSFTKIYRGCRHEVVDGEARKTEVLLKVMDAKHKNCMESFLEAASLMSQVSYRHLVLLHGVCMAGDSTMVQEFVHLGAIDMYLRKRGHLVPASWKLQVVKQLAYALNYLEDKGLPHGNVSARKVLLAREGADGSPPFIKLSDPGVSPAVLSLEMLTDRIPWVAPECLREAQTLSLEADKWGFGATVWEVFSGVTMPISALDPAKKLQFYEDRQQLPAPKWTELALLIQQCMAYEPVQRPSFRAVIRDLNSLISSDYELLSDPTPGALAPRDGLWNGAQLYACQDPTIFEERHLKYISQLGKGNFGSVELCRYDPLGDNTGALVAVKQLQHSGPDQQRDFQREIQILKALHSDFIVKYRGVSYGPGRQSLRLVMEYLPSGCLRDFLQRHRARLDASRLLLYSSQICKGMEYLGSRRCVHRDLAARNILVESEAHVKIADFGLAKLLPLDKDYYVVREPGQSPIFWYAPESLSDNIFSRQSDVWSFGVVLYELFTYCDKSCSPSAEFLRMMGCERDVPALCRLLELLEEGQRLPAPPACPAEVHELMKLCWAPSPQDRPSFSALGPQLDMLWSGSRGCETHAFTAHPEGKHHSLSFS
Structures can show the parent of a compound that is named as a salt.
READOUT_TYPE: IC50

COMPOUND: CCc1cc(O)c(F)cc1-c1cc2[nH]nc(C(=O)NC)c2c(NCc2cc(C)ccc2N(C)S(C)(=O)=O)n1 [Example 21]
READOUT_TYPE: IC50
OBSERVED_VALUE: 67.9 nM
//
COMPOUND: CNC(=O)c1n[nH]c2cc(-c3cc(F)c(O)cc3CC(F)(F)F)nc(NCc3ccccc3N(C)S(C)(=O)=O)c12 [Example 20]
READOUT_TYPE: IC50
OBSERVED_VALUE: 95.3 nM
//
COMPOUND: CCS(=O)(=O)N(C)c1ccccc1CNc1nc(-c2cc(F)c(O)cc2CC(F)(F)F)cc2[nH]nc(C(=O)NC)c12 [Example 13]
READOUT_TYPE: IC50
OBSERVED_VALUE: 118 nM
//
COMPOUND: CCc1cc(O)ccc1-c1cc2[nH]ncc2c(N2CCC(S(=O)(=O)N(C)C)C2)n1 (racemic) [Example 126]
READOUT_TYPE: IC50
OBSERVED_VALUE: 35.1 nM
//
COMPOUND: CNC(=O)c1n[nH]c2cc(-c3cc(F)c(O)cc3CC(F)(F)F)nc(NCc3cc(O)ccc3N(C)S(=O)(=O)c3ccccc3)c12 [Example 35]
READOUT_TYPE: IC50
OBSERVED_VALUE: 817 nM
//
COMPOUND: CNC(=O)c1n[nH]c2cc(-c3cc(F)c(O)cc3CC(F)(F)F)nc(NCc3cc(O)ccc3N(C)S(C)(=O)=O)c12 [Example 50]
READOUT_TYPE: IC50
OBSERVED_VALUE: 47.4 nM
//
COMPOUND: CN(c1ccccc1CNc1nc(-c2cc(F)c(O)cc2CC(F)(F)F)cc2[nH]nc(C(N)=O)c12)S(=O)(=O)c1ccccc1 [Example 26]
READOUT_TYPE: IC50
OBSERVED_VALUE: 293 nM
//
COMPOUND: CCc1cc(O)c(F)cc1-c1cc2[nH]ncc2c(N(CCc2ccc(NS(C)(=O)=O)cc2)Cc2ccccc2N(C)S(C)(=O)=O)n1 [Example 130, hydrochloride]
READOUT_TYPE: IC50
OBSERVED_VALUE: 1360 nM
//
COMPOUND: CCNC(=O)c1n[nH]c2cc(-c3cc(F)c(O)cc3CC(F)(F)F)nc(NCc3nccnc3N(CC)S(C)(=O)=O)c12 [Example 46]
READOUT_TYPE: IC50
OBSERVED_VALUE: 179 nM
//
COMPOUND: CCc1cc(O)c(F)cc1-c1cc2[nH]nc(C(=O)NC)c2c(NCc2ccccc2N(CC)S(C)(=O)=O)n1 [Example 9]
READOUT_TYPE: IC50
OBSERVED_VALUE: 60 nM
//
COMPOUND: CCc1cc(O)ccc1-c1cc2[nH]ncc2c(N2CCc3c(cccc3C(=O)NCc3ccccc3)C2)n1 [Example 117, formate]
READOUT_TYPE: IC50
OBSERVED_VALUE: 41.6 nM
//
COMPOUND: CNC(=O)c1n[nH]c2cc(-c3cc(F)c(O)cc3CC(F)(F)F)nc(NCc3ccc(O)cc3N(C)S(C)(=O)=O)c12 [Example 33]
READOUT_TYPE: IC50
OBSERVED_VALUE: 75.2 nM
//
COMPOUND: CCc1cc(O)c(F)cc1-c1cc2[nH]nc(C(=O)NC)c2c(NCCc2ccc(NS(=O)(=O)c3ccccc3)cc2)n1 [Example 23]
READOUT_TYPE: IC50
OBSERVED_VALUE: 111 nM
//
COMPOUND: Cc1cnc(N(C)S(C)(=O)=O)c(CNc2nc(-c3cc(F)c(O)cc3CC(F)(F)F)cc3[nH]nc(C(N)=O)c23)c1 [Example 86]
READOUT_TYPE: IC50
OBSERVED_VALUE: 81.7 nM
//
COMPOUND: CCc1cc(O)c(F)cc1-c1cc2[nH]nc(C(=O)NC)c2c(NCC2CCCC2)n1 [Example 10]
READOUT_TYPE: IC50
OBSERVED_VALUE: 93.1 nM
//
COMPOUND: CNC(=O)c1n[nH]c2cc(-c3cc(F)c(O)cc3CC(F)(F)F)nc(NCc3c(F)cccc3N(C)S(C)(=O)=O)c12 [Example 18]
READOUT_TYPE: IC50
OBSERVED_VALUE: 73 nM
//
COMPOUND: CNC(=O)c1n[nH]c2cc(-c3cc(F)c(O)cc3CC(F)(F)F)nc(NCc3cc(F)ccc3N(C)S(C)(=O)=O)c12 [Example 14]
READOUT_TYPE: IC50
OBSERVED_VALUE: 99.7 nM
//
COMPOUND: CCc1cc(O)c(F)cc1-c1cc2[nH]nc(C(=O)NC)c2c(NCc2ccccc2N(C)S(=O)(=O)c2ccccc2)n1 [Example 22]
READOUT_TYPE: IC50
OBSERVED_VALUE: 359 nM
//
COMPOUND: CCN(c1ccccc1CNc1nc(-c2cc(F)c(O)cc2CC(F)(F)F)cc2[nH]nc(C(=O)NC)c12)S(C)(=O)=O [Example 12]
READOUT_TYPE: IC50
OBSERVED_VALUE: 121 nM
//
COMPOUND: CNC(=O)c1n[nH]c2cc(-c3cc(F)c(O)cc3CC(F)(F)F)nc(NCc3ccccc3N(CCO)S(C)(=O)=O)c12 [Example 24]
READOUT_TYPE: IC50
OBSERVED_VALUE: 69.6 nM
//
COMPOUND: CNC(=O)c1n[nH]c2cc(-c3cc(F)c(O)cc3CC(F)(F)F)nc(NCc3cc(O)ccc3N(C)S(=O)(=O)c3cccnc3)c12 [Example 54]
READOUT_TYPE: IC50
OBSERVED_VALUE: 123 nM

----------
- System: rhIFNγ stimulated STAT-3 phosphorylation in the A549 human epithelial cell line
- EXPERIMENT: A549 Cell Assay: Inhibition of pSTAT3
- Type: cell-based
- REPORTED_CONDITIONS: Homo sapiens; A549 cells
Structures can show the parent of a compound that is named as a salt.
The reader will find reported IC50 values listed item by item below.

MOLECULE: CN(c1ccc(O)cc1CNc1nc(-c2cc(F)c(O)cc2CC(F)(F)F)cc2[nH]nc(C(N)=O)c12)S(=O)(=O)c1ccccc1
TESTED_ON: rhIFNγ stimulated STAT-3 phosphorylation in the A549 human epithelial cell line
RESULT_OPERATOR: =
IC50 (nM): 645
//
MOLECULE: CN(c1ccc(O)cc1CNc1nc(-c2cc(F)c(O)cc2CC(F)(F)F)nc2[nH]nc(-c3nnc(C4CCN(C(N)=O)CC4)[nH]3)c12)S(C)(=O)=O
TESTED_ON: rhIFNγ stimulated STAT-3 phosphorylation in the A549 human epithelial cell line
RESULT_OPERATOR: >
IC50 (nM): 10000
//
MOLECULE: CCc1cc(O)c(F)cc1-c1cc2[nH]ncc2c(N(C)Cc2ccccc2N(C)S(C)(=O)=O)n1 [Example 146, hydrochloride]
TESTED_ON: rhIFNγ stimulated STAT-3 phosphorylation in the A549 human epithelial cell line
RESULT_OPERATOR: =
IC50 (nM): 7.6
//
MOLECULE: CCN(c1ccc(C)cc1CNc1nc(-c2cc(F)c(O)cc2CC(F)(F)F)cc2[nH]nc(C(N)=O)c12)S(C)(=O)=O
TESTED_ON: rhIFNγ stimulated STAT-3 phosphorylation in the A549 human epithelial cell line
RESULT_OPERATOR: =
IC50 (nM): 26.3
//
MOLECULE: CCN(c1nccnc1CNc1nc(-c2cc(F)c(O)cc2CC(F)(F)F)cc2[nH]nc(C(N)=O)c12)S(C)(=O)=O
TESTED_ON: rhIFNγ stimulated STAT-3 phosphorylation in the A549 human epithelial cell line
RESULT_OPERATOR: =
IC50 (nM): 197
//
MOLECULE: CS(=O)(=O)N(CCO)c1ccccc1CNc1nc(-c2cc(F)c(O)cc2CC(F)(F)F)nc2[nH]nc(C(N)=O)c12
TESTED_ON: rhIFNγ stimulated STAT-3 phosphorylation in the A549 human epithelial cell line
RESULT_OPERATOR: >
IC50 (nM): 10000
//
MOLECULE: CCN(c1ccc(O)cc1CNc1nc(-c2cc(F)c(O)cc2CC(F)(F)F)nc2[nH]nc(C(N)=O)c12)S(=O)(=O)c1ccccc1
TESTED_ON: rhIFNγ stimulated STAT-3 phosphorylation in the A549 human epithelial cell line
RESULT_OPERATOR: =
IC50 (nM): 899
//
MOLECULE: CCc1cc(O)c(F)cc1-c1cc2[nH]nc(C(=O)NC)c2c(NCCc2ccc(O)cc2)n1
TESTED_ON: rhIFNγ stimulated STAT-3 phosphorylation in the A549 human epithelial cell line
RESULT_OPERATOR: =
IC50 (nM): 29.7
//
MOLECULE: CCc1cc(O)c(F)cc1-c1cc2[nH]nc(C(=O)NC)c2c(NCc2cc(O)ccc2N(C)S(C)(=O)=O)n1
TESTED_ON: rhIFNγ stimulated STAT-3 phosphorylation in the A549 human epithelial cell line
RESULT_OPERATOR: =
IC50 (nM): 74
//
MOLECULE: CCc1cc(O)c(F)cc1-c1cc2[nH]ncc2c(N(CCc2ccc(NS(C)(=O)=O)cc2)Cc2ccccc2N(C)S(C)(=O)=O)n1 [Example 130, hydrochloride]
TESTED_ON: rhIFNγ stimulated STAT-3 phosphorylation in the A549 human epithelial cell line
RESULT_OPERATOR: =
IC50 (nM): 729
//
MOLECULE: CCN(c1ccccc1CNc1nc(-c2cc(F)c(O)cc2CC(F)(F)F)nc2[nH]nc(C(=O)NC)c12)S(C)(=O)=O
TESTED_ON: rhIFNγ stimulated STAT-3 phosphorylation in the A549 human epithelial cell line
RESULT_OPERATOR: =
IC50 (nM): 235
//
MOLECULE: CN(c1ncc(F)cc1CNc1nc(-c2cc(F)c(O)cc2CC(F)(F)F)cc2[nH]nc(C(N)=O)c12)S(C)(=O)=O
TESTED_ON: rhIFNγ stimulated STAT-3 phosphorylation in the A549 human epithelial cell line
RESULT_OPERATOR: =
IC50 (nM): 27.2
//
MOLECULE: CCc1cc(O)c(F)cc1-c1cc2[nH]ncc2c(NCc2ccccc2N(C)S(=O)(=O)CC)n1 [Example 135, hydrochloride]
TESTED_ON: rhIFNγ stimulated STAT-3 phosphorylation in the A549 human epithelial cell line
RESULT_OPERATOR: =
IC50 (nM): 3.3
//
MOLECULE: CCc1cc(O)c(F)cc1-c1cc2[nH]nc(-c3nc(C)c[nH]3)c2c(NCc2ccccc2N(C)S(C)(=O)=O)n1
TESTED_ON: rhIFNγ stimulated STAT-3 phosphorylation in the A549 human epithelial cell line
RESULT_OPERATOR: =
IC50 (nM): 18.7
